experiment: chemical genetic growth profiling, strain panel (AID 1159580);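 further: tested at 20 µM; growth read once vehicle control cultures reached saturation at 30 °C; 1 = growth at the plate median or of vehicle wells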
conditionContext: S. cerevisiae deletion strains, growth OD, locus YPL106C, strain sse1
About 2,000 (36%) of roughly 5,500 compounds were called active. Another 18% or so got no clear call; they are omitted. No stated cut-off is given here; in the data, active means normalized growth mostly below about 0.91 (no sharp cut-off); inconclusive means no clear call, values can overlap the other calls; inactive means mostly above about 0.92. Some of the results follow. Where a SMILES comes first, the peptide text is derived from it.
Thanks in advance; please answer with one of these: active, inactive

• CC(=O)N[C@@H](CCC(=O)O)C(=O)O = inactive
• C[C@@H]1CC[C@H]2C(C)(C)C3CC12CC[C@@]3(C)O (stereo not given in full) = active
• CC(=O)N[C@@H](CC(=O)O)C(=O)N[C@@H](CCC(=O)O)C(=O)O (Ac-Asp-Glu-OH) = inactive

Name the outcome recorded for CC(=O)O[C@@H]1CC2C(C)(C)[C@H](O)C=C[C@]2(C)C2CC[C@@]3(C)[C@H](c4ccoc4)OC(=O)C4OC43[C@@]21C (stereo not given in full) in the assay.
inactive

Name the outcome recorded for `CC(=O)O[C@]1(C)CC[C@@]23CC1C(C)(C)[C@@H]2CC[C@H]3C` in the assay.
inactive

====

experiment: chemical genetic growth profiling, strain panel (AID 1159580)
conditionContext: S. cerevisiae deletion strains, growth OD, locus YNL128W, strain TEP1, stronger effect = lower value
Screen size: about 5,500 compounds; about 2,000 (36%) were called active. Another 18% or so got no clear call; they are omitted. This is one part of the list.
metricName: normalized growth
Give your answer as a number; write no unit.

Please review the following examples before continuing.
- COc1c(C)c2c(c(O)c1C/C=C(\C)CCC(=O)O)C(=O)OC2: 0.868
- CC(=O)O[C@H]1C[C@@H](OC(C)=O)C(C)(C)C2C[C@@H](O)[C@]3(C)C(CC[C@@]4(C)[C@H](c5ccoc5)OC(=O)[C@H]5O[C@]543)[C@]21C (stereo not given in full): 0.954
- Cc1cc(CC(=O)O)n(C)c1C(=O)c1ccc(Cl)cc1: 1.01
- CC(C)N(CCC(=O)c1ccc2ccccc2c1)Cc1ccccc1: 0.0691
- NC(=O)NC1NC(=O)NC1=O (stereo not given): 0.997

We now examine a further compound.
Read the entry `C[C@@H](Oc1ccc(Oc2cnc3ccc(Cl)cc3n2)cc1)C(=O)O` and write its reported normalized growth.
0.996

====

experiment: chemical genetic growth profiling, strain panel (AID 1159580);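 further: tested at 20 µM; growth read once vehicle control cultures reached saturation at 30 °C; 1 = growth at the plate median or of vehicle wells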
conditionContext: S. cerevisiae deletion strains, growth OD, locus YLR268W, strain sec22
In all, about 5,500 compounds went through this assay and about 2,000 (36%) were called active. Another 18% or so got no clear call; they are omitted. Cut-off read from the data, not from the text of the source: active = normalized growth mostly below about 0.91 (no sharp cut-off); inconclusive = no clear call, values can overlap the other calls; inactive = mostly above about 0.92. The list shows a part of the results.
Thanks in advance; please answer with one of these: active, inactive

Consider the following illustrative entries.
• NC(=O)NC1NC(=O)NC1=O (stereo unspecified) = inactive
• CCCn1c(=O)c2[nH]c(C3CCCC3)nc2n(CCC)c1=O = inactive
• Cc1onc(-c2ccccc2)c1-c1ccc(S(N)(=O)=O)cc1 = inactive
• COc1cc2c(cc1OC)C1(O)C(=O)c3ccc(O)c(C(=O)O)c3OC1CO2 (stereo unspecified) = inactive
• Fc1ccc([C@@H]2CCNC[C@H]2COc2ccc3c(c2)OCO3)cc1 = inactive

Name the outcome recorded for `NC1(C(=O)O)CC1` in the assay.
inactive

Name the outcome recorded for COC1=CC(=O)OC(CCc2ccc(OC)c(OC)c2)C1 (stereo unspecified) in the assay.
inactive

Name the outcome recorded for COc1ccc2c(c1)OCC(Cc1ccc(OC)c(O)c1)C2=O (stereo unspecified) in the assay.
inactive

Name the outcome recorded for `COc1ccc2oc(-c3ccccc3)c(OC)c(=O)c2c1` in the assay.
active

Name the outcome recorded for `OC[C@H]1O[C@@H](n2cnc3c(NCc4ccco4)ncnc32)[C@H](O)[C@@H]1O` in the assay.
inactive

Name the outcome recorded for `O=C1CCCCC/C=C/CCCCCCCCO1` in the assay.
inactive

Name the outcome recorded for `Cc1cc(CC(=O)O)n(C)c1C(=O)c1ccc(Cl)cc1` in the assay.
inactive

Name the outcome recorded for O=C(O)C1CCCNC1 (stereo unspecified) in the assay.
inactive

Name the outcome recorded for CN[C@@H]1C(OC2[C@H](O[C@H]3[C@H](O)[C@@H](O)[C@H](N=C(N)N)[C@@H](O)[C@@H]3N=C(N)N)OC(C)[C@]2(O)CO)OC(CO)C(O)C1O (stereo partly specified) in the assay.
inactive

Name the outcome recorded for `NC(N)=NCCN1CCCCCCC1` in the assay.
inactive

====

experiment: chemical genetic growth profiling, strain panel (AID 1159580);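 further: tested at 20 µM; growth read once vehicle control cultures reached saturation at 30 °C; 1 = growth at the plate median or of vehicle wells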
conditionContext: S. cerevisiae deletion strains, growth OD, locus YLR113W, strain HOG1, stronger effect = lower value
Out of some 5,500 compounds screened, about 2,000 (36%) were called active. Roughly 18% stayed inconclusive and do not appear here. The list shows a part of the results.
metricName: normalized growth
Give your answer as a number; write no unit.

Read the entry `Cc1cccc(N=NC(C(=O)C(F)(F)F)=C(O)c2cccs2)c1` and write its reported normalized growth.
0.713

Read the entry `NC1(C(=O)O)CCC1` and write its reported normalized growth.
0.996

====

experiment: chemical genetic growth profiling, strain panel (AID 1159580);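 further: tested at 20 µM; growth read once vehicle control cultures reached saturation at 30 °C; 1 = growth at the plate median or of vehicle wells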
conditionContext: S. cerevisiae deletion strains, growth OD, locus YNL307C, strain MCK1, stronger effect = lower value
Screen size: about 5,500 compounds; about 2,000 (36%) were called active. About 18% were inconclusive and are not listed. The list shows a part of the results.
metricName: normalized growth
Give your answer as a number; write no unit.

Please review the following examples before continuing.
• CC(C)/C(O)=C1/C(=O)O[C@@H](c2ccoc2)[C@]2(C)C(O)[C@@H](O)[C@@]34OC5(C)OC67CC(C)(C(O)[C@]6(O)[C@@H](O)[C@]3(O5)C12)[C@H](CC(=O)O)[C@]74C (stereo partly specified) = 1
• CC(=O)OC1CC(O)C(C)(C)C2CC(=O)C3(C)C(CCC4(C)C(c5ccoc5)OC(=O)C5OC543)C12C (stereo unspecified) = 0.98
• O=c1[nH]c(=O)n(C2C[C@H](O)[C@@H](CO)O2)cc1C(F)(F)F (stereo partly specified) = 0.972
• CC1OC(O[C@H]2/C=C/C=C/C=C/C=C/C=C/C=C/C=C/[C@H](C)[C@@H](O)[C@@H](C)[C@H](C)OC(=O)CC(O)CC(O)CCC(O)C(O)CC(O)C[C@]3(O)C[C@H](O)C(C(=O)O)C(C2)O3)C(O)[C@H](N)C1O (stereo partly specified) = 1.03
• C1N2CN3CN1CN(C2)C3 = 0.989
• Clc1ccc(COC(Cn2ccnc2)c2ccc(Cl)cc2Cl)cc1 (stereo unspecified) = 0.0676

Read the entry COC1C=CC23c4cc5c(cc4CN(CC2O)[C@@H]3C1)OCO5 (stereo partly specified) and write its reported normalized growth.
1.01

Read the entry CNc1ccc(C(=O)CC(O)CCC(C)C2OC(=O)CC(O)CC(=O)CC(O)CC(O)CC(O)CC(O)CC3(O)CC(O)C(C(=O)OC)C(CC(OC4OC(C)C(O)C(N)C4O)/C=C/C=C/C=C/C=C/C=C/C=C/C=C/C2C)O3)cc1 (stereo unspecified) and write its reported normalized growth.
0.0706

Read the entry `CC(=O)NCCc1c[nH]c2ccc(O)cc12` and write its reported normalized growth.
0.987

Read the entry `NC(N)=NCCCCN=C(N)N` and write its reported normalized growth.
1.01

Read the entry O=c1cccc2n1CC1CC2CN2CCCC[C@@H]12 (stereo partly specified) and write its reported normalized growth.
0.981

Read the entry `CC(C)c1nc(N(C)S(C)(=O)=O)nc(-c2ccc(F)cc2)c1/C=C/[C@@H](O)C[C@@H](O)CC(=O)O` and write its reported normalized growth.
1.02

Read the entry NC(=O)NC1NC(=O)NC1=O (stereo unspecified) and write its reported normalized growth.
0.985

Read the entry `Cc1onc(-c2ccccc2)c1-c1ccc(S(N)(=O)=O)cc1` and write its reported normalized growth.
0.998

Read the entry `FC(F)(F)c1cccc(N2CCNCC2)c1` and write its reported normalized growth.
0.992

Read the entry CN[C@@H]1C(OC2[C@H](O[C@H]3[C@H](O)[C@@H](O)[C@H](N=C(N)N)[C@@H](O)[C@@H]3N=C(N)N)OC(C)[C@]2(O)CO)OC(CO)C(O)C1O (stereo partly specified) and write its reported normalized growth.
0.976

Read the entry `NCCCNCCSP(=O)(O)O` and write its reported normalized growth.
0.989

Read the entry Clc1ccc(COC(Cn2ccnc2)c2ccc(Cl)cc2Cl)c(Cl)c1 (stereo unspecified) and write its reported normalized growth.
0.0672

Read the entry CCCCCCCCCCCCCC(=O)OC1C(C)C2(O)C(C=C(CO)CC3(O)C(=O)C(C)=CC32)C2C(C)(C)C12OC(C)=O (stereo unspecified) and write its reported normalized growth.
0.99

Read the entry `O=C1CCCCC/C=C/CCCCCCCCO1` and write its reported normalized growth.
0.958

Read the entry COC[C@]12CN(C=O)C3[C@@H]4[C@H](OC)C1[C@]3(C1CC3(O)C(OC)C(O)C4(OC(C)=O)C1C3OC(=O)c1ccccc1)[C@@H](OC)C[C@H]2O (stereo partly specified) and write its reported normalized growth.
1.01
